Tested on: COLO 205
Assay: NCI tumour cell line growth inhibition, 48 h
The source made the active and inactive calls. No stated cut-off is given here; in the data, active = GI50 up to about 1.1 µM and inactive = higher.
Quick reference for GI50 among some compounds

Example entries begin here.
1) O=C1OC(=O)C23CSCC12C1C=CC3O1 (stereo unspecified)    > 100 µM (inactive)
2) CN1C(=O)N(c2nc3ccccc3[nH]2)C(C)(C)C1=O    > 100 µM (inactive)
3) O=C(C(=C(I)I)c1ccccc1)c1ccccc1    27.5 µM (inactive)
4) O=[N+]([O-])C(=C1Nc2ccccc2N1)C(Cl)=C(Cl)Cl    > 100 µM (inactive)
5) CC(C)(Cl)C(Br)CC/C(=C/CCl)CBr.CC(C)(Cl)C(Br)CC/C(=C\CCl)CBr (stereo unspecified)    2.4 µM (inactive)

Field: next compound
Exercise: Please report the recorded GI50 for COC(=O)[C@]1(c2cc3ccccc3n2S(=O)(=O)c2ccccc2)CC2CN(C(C)=O)C1CC2=O (stereo partly specified) .
Key: 2.42 µM (inactive)

* * *

Tested on: UACC-257
Test: NCI tumour cell line growth inhibition, 48 h
Activity calls are given as the source filed them. No stated cut-off is given here; in the data, active = GI50 up to about 1.1 µM and inactive = higher. Where a SMILES comes first, the peptide text is derived from it. [ ]: non-standard residue; d: D form. The star is where a group is joined. Phe(4-NO2) = N[CH](Cc1ccc([N+](=O)[O-])cc1)C(=O)O; Boc = CC(C)(C)OC(=O)*
Measured GI50 values are reported for all entries that follow.

Worked examples follow.
1) CCOC(=O)C(C)c1nc2c(Cl)c3ncccc3cc2[nH]c1=O (stereo unspecified)    > 100 µM (inactive)
2) COc1cc([C@@H]2c3cc4c(cc3[C@@H](NC(=O)c3ccc(OC(C)=O)cc3)C3COC(=O)[C@@H]32)OCO4)cc(OC)c1O (stereo partly specified)    8.32 µM (inactive)
3) COC1=CC(=O)[C@@]2(C)C(C)[C@H](c3ccccc3)[C@H]2C1=O (stereo partly specified)    > 100 µM (inactive)
4) CC(C)(O)[C@@H]1CC[C@@]2(C)CCCC(O)C2(O)C1 (stereo partly specified)    > 100 µM (inactive)
5) O=S(=O)(N1CCCCN(S(=O)(=O)C(F)(F)F)CCCN(S(=O)(=O)C(F)(F)F)CCCCN(S(=O)(=O)C(F)(F)F)CCCN(S(=O)(=O)C(F)(F)F)CCCCN(S(=O)(=O)C(F)(F)F)CCCN(S(=O)(=O)C(F)(F)F)CCCCN(S(=O)(=O)C(F)(F)F)CCC1)C(F)(F)F    > 31.6 µM (inactive)
6) CCOC(=O)c1[nH]c(COC(C)=O)c(CCCOC(C)=O)c1CCCOC(C)=O    > 100 µM (inactive)
7) Nc1nc2c(ncn2CC(CO)CC(c2ccccc2)P(=O)(O)O)c(=O)[nH]1 (stereo unspecified)    > 100 µM (inactive)
8) CCOC(=O)CCC(NC(=O)C(Cc1ccc([N+](=O)[O-])cc1)NC(=O)OC(C)(C)C)C(=O)NC(CCC(=O)OCC)C(=O)OCC (stereo unspecified) (Boc-[Phe(4-NO2)]-Glu(OEt)-Glu(OEt)-OEt; configuration not given here)    > 10 µM (inactive)

Exercise: Recorded GI50 of c1ccc2c(CNCCCCCCCCCCCCNCc3cccc4ccccc34)cccc2c1 , please.
Key: 1.78 µM (inactive)

Exercise: Fill in: GI50 of S=C(NC/C(Br)=C/Br)Nc1cccc2ccccc12 is ___
Key: 22.5 µM (inactive)

Exercise: Look up GI50: N=C1NC(=O)N2CC12 (stereo unspecified) [IMEXON]
Key: > 100 µM (inactive)
